Test system: Caco-2
method_summary: Apparent permeability from basolateral to apical side of human Caco2 cells at 100 uM up to 90 mins
measurement_context: caco-2, 1.5 h
API: label(entry) gives y if the entry's Papp is strictly smaller than 9 ×10⁻⁶ cm/s; on equality or larger values it gives n.

Asked: Input `CCN(CC)C(=O)COC(=O)c1ccc2nc(C(F)(F)F)n(C)c2c1` ; condition: Papp strictly below 9 ×10⁻⁶ cm/s. Does it hold?
Given back: n

Asked: Okay, and `Cn1c(C(F)(F)F)nc2ccc(C(=O)O)cc21` ?
Given back: y

Asked: Another molecule to check: `Cc1nc2ccccc2n1C`
Given back: n

Asked: Follow-up entry: `Cn1c(S)nc2cc(Cl)ccc21`
Given back: n

Asked: What would you report for `Cn1c(S)nc2ccccc21` ?
Given back: n

Asked: // next record `CCCSc1ccc2nc(NC(=O)OC)[nH]c2c1`
Given back: y

---

method_summary: Distribution coefficient, log D of the compound
measurement_context: octanol/water
Would you kindly list logD for each of these compounds?

Asked: Find the recorded logD belonging to `CCN(CC)C(=O)COC(=O)c1ccc2nc(C(F)(F)F)n(C)c2c1` and report it.
Given back: 2.81

Asked: Subsequent entry: `CSc1nc2cc(Cl)ccc2n1C`
Given back: 4.11

Asked: Repeat with `FC(F)(F)c1nc2ccccc2[nH]1`
Given back: 3.36

Asked: Item: `COC(=O)Nc1nc2ccc(Sc3ccccc3)cc2[nH]1`
Given back: 3.93

Asked: Queued: `COC(=O)Nc1nc2ccc(C(=O)c3ccccc3)cc2[nH]1`
Given back: 3.73

Asked: `COC(=O)c1ccc2nc(C(F)(F)F)n(C)c2c1` , same question.
Given back: 3.86

Asked: `CSc1nc2ccccc2n1C` ?
Given back: 3.33

Asked: Record: `Cn1c(C(F)(F)F)nc2cc(Cl)ccc21`
Given back: 3.98

Asked: What do you get for `Cc1nc2ccccc2n1C` ?
Given back: 1.77

Asked: Thanks! And `Cn1c(S)nc2ccccc21` ?
Given back: 2.7

Asked: Moving on to the next compound: `Cc1nc2cc(Cl)c(Cl)cc2n1C`
Given back: 3.86

Asked: Entry to check: `COC(=O)Nc1nc2ccccc2[nH]1`
Given back: 1.49

Asked: // query: `FC(F)(F)c1nc2cc(Cl)c(Cl)cc2[nH]1`
Given back: 4.49

---

method_summary: Aqueous solubility of the compound
measurement_context: buffer
Consider the following compounds; for each one, report its log1/S.
I only need the number, thanks.

Asked: Fill blank: measured log1/S of the compound `Cn1c(C(F)(F)F)nc2cc(C(=O)O)ccc21` is ____.
Given back: 4.35

Asked: Try this compound too: `Cn1c(C(F)(F)F)nc2ccc(C(=O)O)cc21`
Given back: 3.39

Asked: Do the same for `Cn1c(N)nc2cc(Cl)ccc21` please
Given back: 9.12

Asked: Moving on to `CCN(CC)C(=O)COC(=O)c1ccc2nc(C(F)(F)F)n(C)c2c1`
Given back: 6.62

Asked: Proceed to `Cn1c(S)nc2ccc(Cl)cc21`
Given back: 5.59

---

method_summary: Lipophilicity, logkw of the compound by RP-HPLC analysis
measurement_label: logKw
Reply with the value as a number alone.

Asked: Give its logKw value. Item: `CNC(=O)c1ccc2nc(C(F)(F)F)n(C)c2c1`
Given back: 1.33

Asked: Same lookup for `Cn1c(S)nc2ccccc21` , please.
Given back: 1.23

Asked: Same lookup for `CSc1nc2ccccc2n1C` , please.
Given back: 1.78

Asked: Would you kindly repeat that for `Cn1c(C(F)(F)F)nc2ccc(C(=O)O)cc21` ?
Given back: 1.13

Asked: Entry `Cn1c(C(F)(F)F)nc2cc(Cl)ccc21` please
Given back: 2.33

Asked: Item: `COC(=O)c1ccc2nc(C(F)(F)F)n(C)c2c1`
Given back: 2.24

Asked: // query: `COC(=O)c1ccc2c(c1)nc(C(F)(F)F)n2C`
Given back: 2.05

Asked: Moving on to the next compound: `Cn1c(S)nc2ccc(Cl)cc21`
Given back: 1.9

Asked: Queued: c1ccc2[nH]cnc2c1 [BENZIMIDAZOLE]
Given back: 0.27

Asked: Repeat for the following compound: COC(=O)Nc1nc2ccccc2[nH]1 [CARBENDAZIM]
Given back: 0.9

Asked: Further, for COC(=O)Nc1nc2ccc(C(=O)c3ccccc3)cc2[nH]1 [MEBENDAZOLE] ?
Given back: 1.68

Asked: Then `Cn1c(S)nc2cc(Cl)ccc21` ?
Given back: 1.61

Asked: Also check `Cc1nc2cc(Cl)c(Cl)cc2n1C`
Given back: 2.24

Asked: Further, for `FC(F)(F)c1nc2cc(Cl)c(Cl)cc2[nH]1` ?
Given back: 2.78

Asked: Moving on to the next compound: `CCN(CC)C(=O)COC(=O)c1ccc2nc(C(F)(F)F)n(C)c2c1`
Given back: 2.29

Asked: Likewise for `CCN(CC)C(=O)COC(=O)c1ccc2c(c1)nc(C(F)(F)F)n2C` ?
Given back: 2.4

Asked: And for `COC(=O)c1ccc2[nH]c(C(F)(F)F)nc2c1` ?
Given back: 1.94

Asked: What do you have for `CSc1nc2cc(Cl)ccc2n1C` ?
Given back: 2.46
